# System: HT-29
# Test: Antiproliferative activity against human HT-29 cells assessed as growth inhibition incubated for 48 hrs by sulforhodamine B assay
# Assay type: functional, cell-based
# Assay setup: HT-29, 48 h
Measured endpoint: log10 IC50 (log10 of the value in µM)

>  <Structure string>
Cc1cc(C)c(OS(=O)(=O)c2ccc(NC(=O)NCCCl)cc2)cc1C

>  <log10 IC50>
0.36

$$$$
>  <Structure string>
O=C(NCCCl)Nc1ccc(S(=O)(=O)Oc2cc(Cl)c(Cl)cc2Cl)cc1

>  <log10 IC50>
0.08

$$$$
>  <Structure string>
CCOc1ccccc1OS(=O)(=O)c1ccc(NC(=O)NCCCl)cc1

>  <log10 IC50>
0.15

$$$$
>  <Structure string>
O=C(NCCCl)Nc1ccc(S(=O)(=O)Oc2ccccc2F)cc1

>  <log10 IC50>
0.73

$$$$
>  <Structure string>
COc1ccc(OS(=O)(=O)c2ccc(NC(=O)NCCCl)cc2)cc1

>  <log10 IC50>
1.34

$$$$
>  <Structure string>
CC(C)c1ccccc1OS(=O)(=O)c1ccc(NC(=O)NCCCl)cc1

>  <log10 IC50>
0.18

$$$$
>  <Structure string>
O=C(NCCCl)Nc1ccc(S(=O)(=O)Oc2ccccc2[N+](=O)[O-])cc1

>  <log10 IC50>
0.76

$$$$
>  <Structure string>
CCc1ccc(OS(=O)(=O)c2ccc(NC(=O)NCCCl)cc2)cc1

>  <log10 IC50>
1.18

$$$$
>  <Structure string>
O=C(NCCCl)Nc1ccc(S(=O)(=O)Oc2cc(Br)cc(Br)c2)cc1

>  <log10 IC50>
-0.52

$$$$
>  <Structure string>
CCCc1ccc(OS(=O)(=O)c2ccc(NC(=O)NCCCl)cc2)cc1

>  <log10 IC50>
1.04

$$$$
>  <Structure string>
O=C(NCCCl)Nc1ccc(S(=O)(=O)Oc2cccc(I)c2)cc1

>  <log10 IC50>
0.11

$$$$
>  <Structure string>
O=C(NCCCl)Nc1ccc(S(=O)(=O)Oc2ccccc2Cl)cc1

>  <log10 IC50>
0.54

$$$$
>  <Structure string>
O=C(NCCCl)Nc1ccc(S(=O)(=O)Oc2cc(F)c(F)c(F)c2)cc1

>  <log10 IC50>
1.00

$$$$
>  <Structure string>
O=C(NCCCl)Nc1ccc(S(=O)(=O)Oc2ccc(Cl)cc2)cc1

>  <log10 IC50>
0.80

$$$$
>  <Structure string>
Cc1cc(OS(=O)(=O)c2ccc(NC(=O)NCCCl)cc2)cc(C)c1C

>  <log10 IC50>
0.82

$$$$
>  <Structure string>
N#Cc1ccc(OS(=O)(=O)c2ccc(NC(=O)NCCCl)cc2)cc1

>  <log10 IC50>
1.26

$$$$
